Assay: Terminal half life in Sprague-Dawley rat at 1 mg/kg, po
Format: ADME, organism-based
Details: in vivo, read-out: beta t1/2 (converted)

{"compound": "COc1ccc2cc(OCC3(C(=O)O)CN(C(=O)c4ccc(F)cc4)C3)ccc2c1 [PF-04418948]", "result_units": "h", "half-life": 8.8}

###

Target: Prostaglandin E2 receptor EP3 subtype (Homo sapiens, UniProt P43115)
Sequence (P43115 whole entry): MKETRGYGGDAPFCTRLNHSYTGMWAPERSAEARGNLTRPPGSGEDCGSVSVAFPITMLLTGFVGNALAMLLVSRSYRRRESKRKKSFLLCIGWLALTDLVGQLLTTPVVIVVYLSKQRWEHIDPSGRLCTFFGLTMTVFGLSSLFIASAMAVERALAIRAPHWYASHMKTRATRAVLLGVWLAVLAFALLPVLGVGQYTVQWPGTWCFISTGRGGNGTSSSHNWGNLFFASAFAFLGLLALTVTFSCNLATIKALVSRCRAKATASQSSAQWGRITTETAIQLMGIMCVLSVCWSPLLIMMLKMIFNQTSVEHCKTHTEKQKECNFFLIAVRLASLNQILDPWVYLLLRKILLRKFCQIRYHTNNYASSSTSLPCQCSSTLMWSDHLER
Assay: Agonist activity at human EP3 receptor expressed in CHO cells incubated for 30 mins

{"structure_notation": "COc1ccc2cc(OCC3(C(=O)O)CN(C(=O)c4ccc(F)cc4)C3)ccc2c1", "EC50": "> 10 µM"}

###

Assay: Clearance in Sprague-Dawley rat at 1 mg/kg, po
Assay type: ADME, organism-based
Conditions: in vivo

{"compound": "COc1ccc2cc(OCC3(C(=O)O)CN(C(=O)c4ccc(F)cc4)C3)ccc2c1 [PF-04418948]", "CL/F (mL/min/kg)": 0.3}

###

Biological target: Prostaglandin E2 receptor EP3 subtype (Homo sapiens, UniProt P43115)
Test: Antagonist activity at human EP3 receptor expressed in CHO cells assessed as increase in cAMP level incubated for 30 mins followed by agonist addition measured after 90 mins
Assay type: functional, cell-based
measured_property: IC50

{"structure_notation": "COc1ccc2cc(OCC3(C(=O)O)CN(C(=O)c4ccc(F)cc4)C3)ccc2c1", "measured_property": "IC50", "observed_result": "> 10 µM"}

###

Assay: Induction of relaxation in nifedipine-induced carbachol pre-contracted rings of Beagle dog bronchioles incubated for 1 hr
Format: functional, tissue-based, Canis lupus familiaris, Bronchiole
measured_property: EC50 (µM)

{"structure_notation": "CCCCC[C@H](O)/C=C/[C@H]1[C@H](O)CC(=O)[C@@H]1C/C=C\\CCCC(=O)O", "observed_result": 0.09}

###

Assay: Oral bioavailability in Sprague-Dawley rat at 1 mg/kg
Assay type: ADME, organism-based
Conditions: in vivo

{"molecule": "COc1ccc2cc(OCC3(C(=O)O)CN(C(=O)c4ccc(F)cc4)C3)ccc2c1 [PF-04418948]", "result_units": "%", "bioavailability": 78}

###

Assay: Inhibition of EFS-induced contraction of human myometrium incubated for 60 mins
Format: functional, tissue-based
pIC50: −log10 of the molar value.
measured_property: pIC50

{"compound": "CCCC1([C@H](O)C/C=C/[C@H]2[C@H](O)CC(=O)[C@@H]2CCCCCCC(=O)OC)CCC1 [BUTAPROST]", "measured_property": "pIC50", "observed_result": 7.56}
{"compound": "CCCCC[C@H](O)/C=C/[C@H]1[C@H](O)CC(=O)[C@@H]1C/C=C\\CCCC(=O)O [DINOPROSTONE]", "measured_property": "pIC50", "observed_result": 7.76}

###

Experiment: Inhibition of EFS-induced contraction of human myometrium assessed as butaprost IC50 at 10 nM incubated for 60 mins (reference value: 27.8 nM)
Type: functional, tissue-based
pIC50: −log10 of the molar value.

{"molecule": "COc1ccc2cc(OCC3(C(=O)O)CN(C(=O)c4ccc(F)cc4)C3)ccc2c1 [PF-04418948]", "pIC50": 7.27}

###

Molecular target: Thromboxane A2 receptor (Homo sapiens)
Sequence (P21731 whole entry): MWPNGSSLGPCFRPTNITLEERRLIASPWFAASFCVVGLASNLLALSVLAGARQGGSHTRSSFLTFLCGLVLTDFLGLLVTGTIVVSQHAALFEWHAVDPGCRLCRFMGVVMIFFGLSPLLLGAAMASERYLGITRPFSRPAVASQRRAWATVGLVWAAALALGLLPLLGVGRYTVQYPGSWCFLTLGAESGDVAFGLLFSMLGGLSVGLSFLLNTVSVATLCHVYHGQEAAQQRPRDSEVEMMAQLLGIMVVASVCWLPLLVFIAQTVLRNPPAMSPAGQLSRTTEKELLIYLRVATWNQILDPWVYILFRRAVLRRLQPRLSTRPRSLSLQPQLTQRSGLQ

{"structure_notation": "COc1ccc2cc(OCC3(C(=O)O)CN(C(=O)c4ccc(F)cc4)C3)ccc2c1", "system": "Thromboxane A2 receptor (Homo sapiens)", "Ki": "> 10 µM"}

###

Target: Prostaglandin D2 receptor (Homo sapiens, UniProt Q13258)
Sequence (Q13258 whole entry): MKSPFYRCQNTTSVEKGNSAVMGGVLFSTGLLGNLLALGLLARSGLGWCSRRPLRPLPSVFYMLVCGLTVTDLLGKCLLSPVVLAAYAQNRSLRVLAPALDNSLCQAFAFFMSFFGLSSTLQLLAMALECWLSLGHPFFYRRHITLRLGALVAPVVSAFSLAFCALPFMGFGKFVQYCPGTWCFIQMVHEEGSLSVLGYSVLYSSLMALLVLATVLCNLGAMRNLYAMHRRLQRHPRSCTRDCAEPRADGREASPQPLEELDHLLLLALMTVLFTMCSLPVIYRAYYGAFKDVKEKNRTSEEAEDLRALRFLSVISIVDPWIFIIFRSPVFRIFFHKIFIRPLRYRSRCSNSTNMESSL
Experiment: Antagonist activity at human DP1 receptor expressed in CHO cells incubated for 30 mins followed by agonist addition measured after 90 mins

{"structure_notation": "COc1ccc2cc(OCC3(C(=O)O)CN(C(=O)c4ccc(F)cc4)C3)ccc2c1", "system": "Prostaglandin D2 receptor (Homo sapiens, UniProt Q13258)", "IC50": "> 32.8 µM"}

###

Target: Prostacyclin receptor (Homo sapiens)
Sequence (P43119 whole entry): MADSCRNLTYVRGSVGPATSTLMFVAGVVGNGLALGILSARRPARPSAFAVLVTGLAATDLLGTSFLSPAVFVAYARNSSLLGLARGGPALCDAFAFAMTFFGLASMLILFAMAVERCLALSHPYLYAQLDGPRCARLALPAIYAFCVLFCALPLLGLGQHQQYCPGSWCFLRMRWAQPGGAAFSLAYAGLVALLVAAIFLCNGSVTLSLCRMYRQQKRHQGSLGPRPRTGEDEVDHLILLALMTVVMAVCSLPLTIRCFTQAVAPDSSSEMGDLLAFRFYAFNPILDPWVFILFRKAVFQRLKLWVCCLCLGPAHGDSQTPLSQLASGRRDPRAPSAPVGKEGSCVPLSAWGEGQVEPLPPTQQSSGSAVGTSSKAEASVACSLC
pKi: −log10 of the molar value.

{"structure_notation": "COc1ccc2cc(OCC3(C(=O)O)CN(C(=O)c4ccc(F)cc4)C3)ccc2c1", "pKi": "< 5.00"}

###

Assay: Displacement of [3H]-Iloprost from human LTB4 receptor assessed as inhibition constant incubated for 2 hrs by TopCount NXT counter based analysis

{"structure_notation": "COc1ccc2cc(OCC3(C(=O)O)CN(C(=O)c4ccc(F)cc4)C3)ccc2c1", "result_units": "µM", "Ki": 4.8}
